Recorded values, source PubChem BioAssay AID1963843.

Reported viability, T/C values follow for various compounds
# Tested on: 616215-338-R-J1-PDC complex spheroid viability;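 also: spheroids exposed to compounds for one week before readout; percent viability relative to DMSO vehicle wells taken as 100%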
# run.description: Anticancer human tumor 616215-338-R-J1-PDC patient-derived colon adenocarcinoma cell line growth inhibition [POLQ]
# cond: second compound 1 µM; first compound 3.16 µM; hits give low values
# output: bare number, implied unit %

Before answering, review these 4 worked examples.
>  <compound>
O=C(Nc1ccc(O)c(NS(=O)(=O)c2ccc(F)cc2)c1)c1ccc(-c2ccccc2)cc1 + Cc1cccc(N(C)C(=O)C2C(O)CCN2c2nc(C)cc(C(F)(F)F)c2C#N)c1

>  <viability, T/C [%]>
82

$$$$
>  <compound>
CCc1cc2c(N3CCc4c(cc(Cn5ccnc5)cc4-c4cn(C)nc4C(F)(F)F)C3=O)cc(C)nc2c(OC)n1 + COC1C(OC(N)=O)C(O)C(Oc2ccc3c(O)c(NC(=O)c4ccc(O)c(CC=C(C)C)c4)c(=O)oc3c2C)OC1(C)C

>  <viability, T/C [%]>
57

$$$$
>  <compound>
COc1ccc([C@@H](O)c2cc(-c3ncnc4cc(N5CCOCC5)ccc34)c(F)cc2Cl)nn1 + Nc1ccc(C#CCN(C(=O)Cc2ncc(C(F)(F)F)cc2C(F)(F)F)c2ccc(F)cc2)nn1

>  <viability, T/C [%]>
94.4

$$$$
>  <compound>
O=C(c1cc(Cc2n[nH]c(=O)c3ccccc23)ccc1F)N1CCN(C(=O)C2CC2)CC1 + Nc1ccc(C#CCN(C(=O)Cc2ncc(C(F)(F)F)cc2C(F)(F)F)c2ccc(F)cc2)nn1

>  <viability, T/C [%]>
80

$$$$

Then there is this compound:
Query: State the recorded viability, T/C for this entry: Nc1ccn(C2OC(CO)C(O)C2(F)F)c(=O)n1 (stereo not given) + COC1C(OC(N)=O)C(O)C(Oc2ccc3c(O)c(NC(=O)c4ccc(O)c(CC=C(C)C)c4)c(=O)oc3c2C)OC1(C)C
Reply: 32.6
